Listed next: entries and their corresponding pKd.
- Tested System: T1, Recombinant soluble E protein (0.8E-His) from DENV-3 (DENV-3, UniProt P27915 281-673)
- T1 construct: also called DENV-3 E protein; DV3
pKd: −log10 of the molar value.

{"columns": ["Binder", "pKd"],
 "data": [
  ["DG_3CH-SG182/3CL563-SK1 (antibody, V domains shown) VH: QVQLVQSGPDVEKPGASVKVSCKASGYTFTSNYIHWVRQAPGQGLEWMGVINPRGGSTASAQKFQGRITMTRDTSTSTVYMELSSLRSDDTAVYYCARGGRALFYDSYTTPRDGGSWWFDPWGQGSLVTVSS VL: DIQLTQSPSSLSASVGDRVTFTCQASQDIRQYLNWYQQKPGKAPKLLIYDASNLKFGVPSRFSGSGSGTDFTFTISSLQPEDVATYYCQQFSALPITFGQGTRLQIKR", 8.45],
  ["DG_3CH953-SG182/3CL499-SK1 (antibody, V domains shown) VH: QVQLVQSGPDVEKPGASVKVSCKASGYTFTSNYIHWVRQAPGQGLEWMGVINPRGGSRRSAQKFQGRITMTRDTSTSTVYMELSSLRSEDTAVYYCARGGRALFYDSYTTPFDGGSWWFDPWGQGSLVTVSS VL: DIQLTQSPSSLSASVGDRVTFTCQASQDIRKYLNWYQQKPGKAPKLLIYDASNLKFGVPSRFSGSGSGTDFTFTISSLQPEDVATYYCQQFDALPITFGQGTRLQIKR", 9.68],
  ["DG_3CH-SG182/3CL499-SK1 (antibody, V domains shown) VH: QVQLVQSGPDVEKPGASVKVSCKASGYTFTSNYIHWVRQAPGQGLEWMGVINPRGGSTASAQKFQGRITMTRDTSTSTVYMELSSLRSDDTAVYYCARGGRALFYDSYTTPRDGGSWWFDPWGQGSLVTVSS VL: DIQLTQSPSSLSASVGDRVTFTCQASQDIRKYLNWYQQKPGKAPKLLIYDASNLKFGVPSRFSGSGSGTDFTFTISSLQPEDVATYYCQQFDALPITFGQGTRLQIKR", 8.39]
]}
